TARGET OF ASSAY: acetylcholine receptor
ASSAY DETAILS: SPR, AchR immobilised on CM5 chip, peptide 10 uM
PROPERTY MEASURED: Binding affinity (RU)
Numbers only, in RU.

KRKPVR [6mer-1-1057]    43
KCPGKR [6mer-2-717]    15
KKITFR [6mer-1-1036]    21
KTEPKR [6mer-2-647]    19

Provide reported Binding affinity (RU) for each item, in the same order as listed.
1. KKMEDR [6mer-1-1050]
2. RPMFRK [6mer-2-688]
3. KRKSER [6mer-1-985]
4. RIPNKR [6mer-2-757]

OUTPUT:
38
13
22
19
